Numbers sourced from the RepoRT retention time repository (doi:10.1016/j.jhazmat.2019.121712).

- PROTOCOL_SUMMARY: Thermo Scientific Acclaim RSLC 120 C18, 100 × 2.1 mm, 2.2 µm, 30 °C; A: 90% water + 10% methanol + 0.01% formic acid + 5 mM ammonium formate; B: methanol + 0.01% formic acid + 5 mM ammonium formate; gradient (min/%B) 0.1/1 3/39 14/99.9 16/99.9
- CONDITION_CONTEXT: stereoisomer not certain
Is LC retention time at least 7 min? Then true (1). If not, false (0).

# COMPOUND, CATEGORY
data = [
    ("c1ccc(C2(N3CCCCC3)CCCCC2)cc1", "false (0)"),
    ("CCOP(=O)(Sc1ccccc1)Sc1ccccc1", "true (1)"),
    ("CNC(=O)N(C)c1nc2ccccc2s1", "true (1)"),
    ("COc1ccc(CC(C)N)cc1 (stereo unspecified)", "false (0)"),
    ("CCN(CC)C(=O)Nc1ccc(OCC(O)CNC(C)(C)C)c(C(C)=O)c1 (stereo unspecified)", "false (0)"),
    ("CCCc1nn(C)c2c(=O)[nH]c(-c3cc(S(=O)(=O)N4CCN(C)CC4)ccc3OCC)nc12", "true (1)"),
    ("C=C(c1ccc(C(=O)O)cc1)c1cc2c(cc1C)C(C)(C)CCC2(C)C", "true (1)"),
    ("CCCCn1cc(C(=O)c2cccc3ccccc23)c2c(O)cccc21", "true (1)"),
    ("CC(C)(C)NCC(O)COc1ccccc1C1CCCC1 (stereo unspecified)", "true (1)"),
    ("CC(N)C12CC3CC(CC(C3)C1)C2 (stereo unspecified)", "false (0)"),
    ("CC(=O)c1ccc2c(c1)N(CC(C)N(C)C)c1ccccc1S2 (stereo unspecified)", "true (1)"),
    ("CC12CCC(=O)C=C1CCC1C2C(O)CC2(C)C1CCC2(O)C(=O)CO (stereo unspecified)", "true (1)"),
    ("CC(N)Cc1ccccc1 (stereo unspecified)", "false (0)"),
    ("CCCc1nc2c(C)cc(-c3nc4ccccc4n3C)cc2n1Cc1ccc(-c2ccccc2C(=O)O)cc1", "true (1)"),
    ("CCOP(=S)(OCC)Oc1cc(C)nc(N(CC)CC)n1", "true (1)"),
    ("NNC(=O)c1ccncc1", "false (0)"),
    ("CC(C)C(NC(=O)c1nn(CC2CCCCC2)c2ccccc12)C(N)=O (stereo unspecified)", "true (1)"),
    ("COc1cc(OC)nc(NC(=O)NS(=O)(=O)N(C)S(C)(=O)=O)n1", "false (0)"),
    ("CCOP(=S)(OCC)SCCS(=O)CC (stereo unspecified)", "true (1)"),
    ("Cc1nccn1CC1CCc2c(c3ccccc3n2C)C1=O (stereo unspecified)", "false (0)"),
]

* * *

- PROTOCOL_SUMMARY: Thermo Scientific Acclaim RSLC 120 C18, 100 × 2.1 mm, 2.2 µm, 30 °C; A: 90% water + 10% methanol + 0.01% formic acid + 5 mM ammonium formate; B: methanol + 0.01% formic acid + 5 mM ammonium formate; gradient (min/%B) 0.1/1 3/39 14/99.9 16/99.9
- CONDITION_CONTEXT: stereoisomer not certain

# COMPOUND, LC retention time [min]
records = [
    ("CCOC(=O)C1=NOC(c2ccccc2)(c2ccccc2)C1", 10.7),
    ("CNC(C)Cc1cccs1 (stereo not given)", 3.69),
    ("CCCCCCC(C)(C)c1ccc(C2CC(O)CCC2CCCO)c(O)c1 (stereo not given)", 12),
    ("CCCC(C(=O)c1ccc(C)cc1)N1CCCC1 (stereo not given)", 6.03),
    ("CCCCCn1c(C)c(C(=O)c2cccc3ccccc23)c2ccccc21", 12.6),
]

* * *

- PROTOCOL_SUMMARY: Thermo Scientific Acclaim RSLC 120 C18, 100 × 2.1 mm, 2.2 µm, 30 °C; A: 90% water + 10% methanol + 0.01% formic acid + 5 mM ammonium formate; B: methanol + 0.01% formic acid + 5 mM ammonium formate; gradient (min/%B) 0.1/1 3/39 14/99.9 16/99.9
- CONDITION_CONTEXT: stereoisomer not certain
Entries and their measured LC retention time follow.

# MOLECULE, LC retention time
data = [
    ("OC(CCN1CCCC1)(c1ccccc1)C1CCCCC1 (configuration not stated)", "7.8 min"),
    ("CCC(=O)C(CC(C)N(C)C)(c1ccccc1)c1ccccc1 (configuration not stated)", "8.04 min"),
    ("CC(=O)N(C)N(C(=O)C(=O)N(C)C)c1ccccc1", "5.06 min"),
    ("COc1ccc2c3c([nH]c2c1)C(C)=NCC3", "5.06 min"),
    ("CCOc1nc2cccc(C(=O)O)c2n1Cc1ccc(-c2ccccc2-c2nn[nH]n2)cc1", "7.93 min"),
    ("CCOP(=S)(OCC)SCCS(=O)(=O)CC", "8.02 min"),
    ("CC12CCC3=C4CCC(=O)C=C4CCC3C1CCC2(O)CC#N (configuration not stated)", "8.09 min"),
]

* * *

Quick reference for LC retention time among some compounds
- PROTOCOL_SUMMARY: Thermo Scientific Acclaim RSLC 120 C18, 100 × 2.1 mm, 2.2 µm, 30 °C; A: 90% water + 10% methanol + 0.01% formic acid + 5 mM ammonium formate; B: methanol + 0.01% formic acid + 5 mM ammonium formate; gradient (min/%B) 0.1/1 3/39 14/99.9 16/99.9
- CONDITION_CONTEXT: stereoisomer not certain
MEASURED_ATTRIBUTE: LC retention time (min)

# COMPOUND, UNIT_LABEL, ENDPOINT_VALUE
records = [
    ("CN(C)CCOC(C)(c1ccccc1)c1ccccn1 (stereo not drawn)", "min", 5.18),
    ("CCc1c(C)[nH]c2c1C(=O)C(CN1CCOCC1)CC2 (stereo not drawn)", "min", 4.89),
    ("CCCCC(CC)COC(=O)c1ccccc1C(=O)OCC(CC)CCCC (stereo not drawn)", "min", 15),
    ("CC=C1CC(C)C(C)(O)C(=O)OCC2=CC[N+]3([O-])CCC(OC1=O)C23 (stereo not drawn)", "min", 5.07),
    ("CCCCCn1c(O)c(C(=O)c2cccc3ccccc23)c2ccccc21", "min", 14),
    ("CCCCCCC(C)(C)c1ccc(C2CCCC(O)C2)c(O)c1 (stereo not drawn)", "min", 13.1),
    ("c1ccc2c(CC3=NCCN3)cccc2c1", "min", 4.84),
    ("CN(C)CCC=C1c2ccccc2C(C)(C)c2ccccc21", "min", 8.79),
]

* * *

- PROTOCOL_SUMMARY: Thermo Scientific Acclaim RSLC 120 C18, 100 × 2.1 mm, 2.2 µm, 30 °C; A: 90% water + 10% methanol + 0.01% formic acid + 5 mM ammonium formate; B: methanol + 0.01% formic acid + 5 mM ammonium formate; gradient (min/%B) 0.1/1 3/39 14/99.9 16/99.9
- CONDITION_CONTEXT: stereoisomer not certain
Label rule, in plain words: LC retention time of 7 min and up is label 1, under 7 min is label 0.

# MOLECULE, CATEGORY
measured = [
    ("CCOc1ccc2c3c1OC1C(O)C=CC4C(C2)N(C)CCC341 (stereo not drawn)", "label 0"),
    ("COC1CC(CC2CCC(C)C(C(C)C(=O)O)O2)OC2(OC(C)(C3CCC(C)(C4OC(C5OC(O)(CO)C(C)CC5C)CC4C)O3)CC2C)C1C (stereo not drawn)", "label 1"),
    ("Cc1ccc(C(=O)c2ccc(CC(=O)O)n2C)cc1", "label 1"),
    ("Cc1ccc(S(=O)(=O)NC(=O)NN2CCCCCC2)cc1", "label 1"),
    ("CCOP(=S)(OCC)SCCSCC", "label 1"),
    ("CSc1ccc2c(c1)N(CCC1CCCCN1C)c1ccccc1S2=O (stereo not drawn)", "label 0"),
    ("O=C(C1CCCCC1)N1CC(=O)N2CCc3ccccc3C2C1 (stereo not drawn)", "label 1"),
    ("CN1CCC(=C2c3ccccc3CC(=O)c3sccc32)CC1", "label 0"),
    ("CC(C)CNC(=O)N1CCNC1=O", "label 0"),
    ("CCc1cc2c(cc1CC)CC(NCC(O)c1ccc(O)c3[nH]c(=O)ccc13)C2 (stereo not drawn)", "label 1"),
    ("CC(NCCc1ccc(O)cc1)C(O)c1ccc(O)cc1 (stereo not drawn)", "label 0"),
    ("CN(C)C1CSSSC1", "label 0"),
    ("CN1C(=O)CCC1c1cccnc1 (stereo not drawn)", "label 0"),
    ("CN=C(NC#N)NCCSCc1nc[nH]c1C", "label 0"),
    ("C[N+]1([O-])CCN2c3ccccc3Cc3ccccc3C2C1 (stereo not drawn)", "label 1"),
    ("CCCC(Cc1ccccc1)N1CCCC1 (stereo not drawn)", "label 0"),
    ("CCCn1c(C)c(C(=O)c2cccc3ccccc23)c2ccccc21", "label 1"),
    ("CC(C)NCC(O)COc1cccc2[nH]c3ccccc3c12 (stereo not drawn)", "label 0"),
    ("CCC(N)Cc1ccc2c(c1)OCO2 (stereo not drawn)", "label 0"),
    ("CCCCn1cc(C(=O)c2cccc3ccccc23)c2ccccc21", "label 1"),
    ("CN1C2CCC1CC(OC(c1ccccc1)c1ccccc1)C2 (stereo not drawn)", "label 1"),
    ("CCOP(=S)(OCC)Oc1ccc(=O)n(-c2ccccc2)n1", "label 1"),
    ("CCCN1CC(NS(=O)(=O)N(CC)CC)CC2Cc3c(O)cccc3CC21 (stereo not drawn)", "label 0"),
]
